Target: hS1P4 (Homo sapiens)
Construct: expressed in transfected cells; host or cells: CHO
Experiment: Tango β-arrestin recruitment luciferase assay, Tango-hS1P4-CHO
Assay type: cell-based
Conditions: β-arrestin recruitment; 20 h drug treatment; top 45 µM, 9 serial 5-fold dilutions; positive control 25 µM BAF-312; read-out: Tango-hS1P4-CHO EC50
Description: The Tango assay detects ligand-dependent GPCR activity through the interaction between β-arrestin and GPCRs. […] The NTEV fragment and the tetracycline transactivator (tTA), an artificial transcription factor, are fused at the C-terminus of the GPCR, while the CTEV fragment is fused to human β-arrestin 2. […] The released tTA initiates tTA-dependent luciferase transcription, and compound activity is ultimately determined by measuring luminescence intensity. […]
pEC50: −log10 of the molar value.
assay.endpoint: pEC50

Give the reported pEC50 for this molecule. CCc1cc(/C(C)=N/OCc2ccc(-c3cnc(F)cn3)c(C)c2)ccc1CN1CC(C(=O)O)C1 < 5.00

Give the reported pEC50 for this molecule. C/C(=N\OCc1ccc(C2CCCCC2)c(C(F)(F)F)c1)c1ccc(CN2CCCC(C(=O)O)C2)cc1 (stereo not shown) 5.60

Give the reported pEC50 for this molecule. CCc1cc(/C(C)=N/OCc2ccc(-c3cnn(C)c3)cc2F)ccc1CN1CC[C@H](C(=O)O)C1 < 5.00

***
Give the reported pEC50 for this molecule. CCc1cc(/C(C)=N/OCc2ccc(-c3cnc(F)cn3)c(C)c2)ccc1CN1CCCC(C(=O)O)C1 (stereo not shown) < 5.00

###

Below, each entry is listed alongside its reported pEC50.
biological target: hS1P4 (Homo sapiens, UniProt O95977); construct: expressed in transfected cells; host or cells: CHO; test: Tango β-arrestin recruitment luciferase assay, Tango-hS1P4-CHO; format: cell-based; conditions: β-arrestin recruitment; 20 h drug treatment; top 45 µM, 9 serial 5-fold dilutions; positive control 25 µM BAF-312; read-out: Tango-hS1P4-CHO EC50
Sequence (O95977 whole entry): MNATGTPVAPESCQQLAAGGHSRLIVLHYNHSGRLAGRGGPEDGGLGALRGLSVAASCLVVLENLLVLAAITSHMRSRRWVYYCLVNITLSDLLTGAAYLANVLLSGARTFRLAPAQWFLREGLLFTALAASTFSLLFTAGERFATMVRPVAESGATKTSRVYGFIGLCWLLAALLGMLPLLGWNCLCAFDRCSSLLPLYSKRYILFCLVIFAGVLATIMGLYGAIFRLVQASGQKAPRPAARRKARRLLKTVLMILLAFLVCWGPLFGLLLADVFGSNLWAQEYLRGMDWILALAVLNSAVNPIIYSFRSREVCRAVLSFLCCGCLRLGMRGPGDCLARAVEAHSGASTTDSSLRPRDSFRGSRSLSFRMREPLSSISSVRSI
# pEC50: negative log10 of molar concentration; output just the value

Solved cases (2 shown):
Give the reported pEC50 for this molecule. CCc1cc(/C(C)=N/OCc2ccc(-c3ccccc3)c(C)c2)ccc1CN1CC[C@H](C(=O)O)C1 [Compound 30] 8.04

Give the reported pEC50 for this molecule. CCc1cc(/C(C)=N/OCc2ccc(-c3ccc(F)cc3F)c(C)c2)ccc1CN1CC[C@H](C(=O)O)C1 [Compound 47] 8.33

***
Give the reported pEC50 for this molecule. CCc1cc(/C(C)=N/OCc2ccc(-c3cnc(F)cn3)c(C)c2)ccc1CN1CC[C@H](C(=O)O)C1 [Compound 67] 8.74

Give the reported pEC50 for this molecule. CCc1cc(/C(C)=N/OCc2ccc(-c3cnn(C)c3)cc2)ccc1CN1CC[C@H](C(=O)O)C1 [Compound 55] 6.57

Give the reported pEC50 for this molecule. C/C(=N\OCc1ccc(C2CCCCC2)cc1)c1ccc(CN2CC(C(=O)O)C2)cc1 [Compound 1] 5.53

Give the reported pEC50 for this molecule. CCc1cc(/C(C)=N/OCc2ccc(-c3ccsc3)c(C)c2)ccc1CN1CC[C@H](C(=O)O)C1 [Compound 41] 8.54

Give the reported pEC50 for this molecule. CCc1cc(/C(C)=N/OCc2ccc(C3=CCCCC3)c(C)c2)ccc1CN1CC[C@H](C(=O)O)C1 [Compound 61] 8.48

Give the reported pEC50 for this molecule. CCc1cc(/C(C)=N/OCc2ccc(C3=CCCC3)c(C)c2)ccc1CN1CC[C@H](C(=O)O)C1 [Compound 63] 8.23
